Source: the RNAGym collection of RNA variant scans (doi:10.1073/pnas.2313332121)

B1: TPR t1 (parent)
chain: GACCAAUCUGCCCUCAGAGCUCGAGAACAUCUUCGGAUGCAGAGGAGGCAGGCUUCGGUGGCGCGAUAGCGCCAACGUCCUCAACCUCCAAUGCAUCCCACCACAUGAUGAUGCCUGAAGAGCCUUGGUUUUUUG

Variants of: B1
Test: polymerase ribozyme fitness, log enrichment relative to wild type (log ratio); higher = more active; in vitro selection for triplet polymerase activity
Label scheme for polymerase ribozyme fitness (log ratio): band A = under -4, band B = from -4 up to -2, band C = -2 and over

{"Variant notation": "A91U C98U", "Class": "band B"}
{"Variant notation": "U78C A105C A121C", "Class": "band C"}
{"Variant notation": "G17U G47A G71C", "Class": "band B"}
{"Variant notation": "A27G C70U C80A", "Class": "band A"}
{"Variant notation": "C40G G61U C72G G117C", "Class": "band A"}
{"Variant notation": "C11G G35U C82A A105C C123A C124A", "Class": "band A"}
{"Variant notation": "A2U C73U", "Class": "band B"}
{"Variant notation": "G47A G120A U126A", "Class": "band C"}
{"Variant notation": "C72A C73A", "Class": "band C"}
{"Variant notation": "G71U U81G A111U", "Class": "band A"}
{"Variant notation": "C53U A90U C101A", "Class": "band B"}
{"Variant notation": "C8A G58C U59C A105C U132A", "Class": "band B"}
{"Variant notation": "C34A A50C", "Class": "band B"}
{"Variant notation": "A41C A46C C72G C97U U133A", "Class": "band B"}
{"Variant notation": "G42C G57A", "Class": "band B"}
{"Variant notation": "C73G G120A", "Class": "band C"}
{"Variant notation": "C11G G63C U96A", "Class": "band C"}
{"Variant notation": "G44U U96A", "Class": "band B"}
{"Variant notation": "C15U G44A G47A A105U", "Class": "band A"}
{"Variant notation": "G69C U96A", "Class": "band B"}
{"Variant notation": "G39A G135C", "Class": "band C"}
{"Variant notation": "C28A C62A", "Class": "band A"}
{"Variant notation": "A37G A121G", "Class": "band C"}
{"Variant notation": "U55A G77A A111U C114U", "Class": "band A"}
{"Variant notation": "G51C A91U G113C C124A", "Class": "band A"}
{"Variant notation": "U9A C56A", "Class": "band C"}
{"Variant notation": "C8A U78C G113C", "Class": "band C"}
{"Variant notation": "C85A C89A U106A C114A", "Class": "band A"}
{"Variant notation": "C8A C13U G36C", "Class": "band C"}
{"Variant notation": "G61A C98U G120U", "Class": "band C"}
{"Variant notation": "U78C U92G C114U", "Class": "band B"}
{"Variant notation": "A2C A6G C8A G61A C101G U131C", "Class": "band C"}
{"Variant notation": "C8U C64U U96C", "Class": "band C"}
{"Variant notation": "G69U C76G U133A", "Class": "band B"}
{"Variant notation": "C12G C98U A119G", "Class": "band C"}
{"Variant notation": "C8A A66U C124G", "Class": "band C"}
{"Variant notation": "A5U A27U", "Class": "band B"}
{"Variant notation": "G60C C123G", "Class": "band C"}
{"Variant notation": "G10A C20G A41C G48A G69U A84G", "Class": "band B"}
